Data credit: patent US6013626A

- Test system: murine leukemia (L1210 or P388), murine solid tumor, human solid tumor and low malignancy fibroblast (LML)
- Settings: μg/disk differs per compound (0.2-250 μg/disk)
Measure name: Corbett Assay, Type of Cytotoxicity

In the examples that follow, each entry is paired with its recorded Corbett Assay, Type of Cytotoxicity.
# Compound, Data value
data = [
    ("COc1ccc(C[C@H]2NC(=O)/C=C/C[C@@H]([C@H](C)[C@H]3O[C@@H]3c3ccccc3)OC(=O)[C@H](CC(C)C)OC(=O)[C@H](C)CNC2=O)cc1Cl [Cryptophycin 1]", "E/T"),
    ("CC(=O)O[C@H]1C(=O)[C@@]2(C)[C@H]([C@H](OC(=O)c3ccccc3)[C@]3(O)C[C@H](OC(=O)[C@H](O)[C@@H](NC(=O)c4ccccc4)c4ccccc4)C(C)=C1C3(C)C)[C@]1(OC(C)=O)CO[C@@H]1C[C@@H]2O [Taxol, taxol, reference compound]", "M/H/T"),
    ("COc1ccc(C[C@H]2NC(=O)/C=C/C[C@@H]([C@H](C)/C=C/c3ccccc3)OC(=O)[C@H](CC(C)C)OC(=O)[C@H](C)CNC2=O)cc1 [Cryptophycin 4]", "E/T"),
    ("COc1ccc(C[C@H]2NC(=O)/C=C/C[C@@H]([C@H](C)/C=C/c3ccccc3)OC(=O)[C@H](CC(C)C)OC(=O)[C@H](C)CNC2=O)cc1Cl [Cryptophycin 3]", "E/T"),
    ("COc1ccc(C[C@H]2NC(=O)/C=C/C[C@@H]([C@H](C)[C@@H](O)[C@@H](Cl)c3ccccc3)OC(=O)[C@H](CC(C)C)OC(=O)[C@H](C)CNC2=O)cc1Cl [Cryptophycin 8]", "E/T"),
]

Then this compound:
Query COc1ccc(C[C@H]2NC(=O)/C=C/C[C@@H]([C@H](C)[C@H]3O[C@@H]3c3ccccc3)OC(=O)[C@H](CC(C)C)OC(=O)[C@H](C)CNC2=O)cc1 [Cryptophycin 2] yields Corbett Assay, Type of Cytotoxicity of E/T
